Provide the reported RBC of each item.
Test: Cynomolgus monkey tolerability, hematology (Example 34)
Assay type: in vivo, cynomolgus monkeys
Conditions: cynomolgus monkey, in vivo, sc, 35 mg/kg
State just the number; it will be interpreted in µL⁻¹.

Given item 958499 (ATTAGAGTATGTGGCA; 3-10-3 cEt gapmer, further chemistry not given here) [compound 958499] , the value recorded as its RBC is 5.6e+06

Given item 1198728 (TATTAGAGTATGTGGC; modified gapmer, further chemistry not given here) [compound 1198728] , the value recorded as its RBC is 5.9e+06

Given item 1198439 (AGTGTATGTCAGAAGA; sugar, 5-methylcytosine, phosphorothioate modifications, further chemistry not given here) [compound 1198439] , the value recorded as its RBC is 6e+06

Given item 1198623 (CTAAGTAAGGTTTCCC; modified gapmer, further chemistry not given here) [compound 1198623] , the value recorded as its RBC is 5.9e+06

Given item 1076453 (GTAATATTGCAATCTG; 3-10-3 cEt gapmer, further chemistry not given here) [compound 1076453] , the value recorded as its RBC is 5.5e+06

Given item 1198440 (AAGTGTATGTCAGAAG; cEt, 2'-MOE, 5-methylcytosine, phosphorothioate modifications, further chemistry not given here) [compound 1198440] , the value recorded as its RBC is 5.9e+06

Each recorded value in this set is attributed to patent US11214803B2.
